# tested-system: PXR (NR1I2) (Homo sapiens)
# Sequence (O75469 whole entry): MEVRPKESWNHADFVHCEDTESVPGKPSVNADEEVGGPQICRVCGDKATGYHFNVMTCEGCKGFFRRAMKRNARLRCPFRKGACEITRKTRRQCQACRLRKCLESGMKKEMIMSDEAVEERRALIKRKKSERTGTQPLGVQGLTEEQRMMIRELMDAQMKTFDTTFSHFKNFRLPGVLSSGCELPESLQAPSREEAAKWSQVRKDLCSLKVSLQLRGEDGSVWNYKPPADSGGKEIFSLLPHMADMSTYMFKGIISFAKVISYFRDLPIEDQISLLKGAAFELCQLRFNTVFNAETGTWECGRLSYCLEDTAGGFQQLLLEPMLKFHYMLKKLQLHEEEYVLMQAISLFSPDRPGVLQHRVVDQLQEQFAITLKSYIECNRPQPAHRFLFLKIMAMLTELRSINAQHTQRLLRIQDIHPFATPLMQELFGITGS
# experimental-protocol: Agonist activity at human PXR expressed in HepG2 cells co-expressing luciferase gene under control of CYP3A4 promoter at 10 uM incubated for 24 hrs by luciferase reporter assay relative to control
Listing of entries alongside the reported activity at 24 h, 10 µM.
endpoint-label: activity at 24 h, 10 µM (%)

{"entry-smiles": "COC(=O)c1cc(OC)c(-n2nnc(S(=O)(=O)c3ccc(C(C)(C)C)cc3)c2C)cc1OC", "tested-system": "PXR (NR1I2) (Homo sapiens)", "endpoint-label": "activity at 24 h, 10 µM", "meas-value": 78}
{"entry-smiles": "COc1ccc(OC)c(-n2nnc(S(=O)(=O)c3ccc(C)cc3)c2C)c1", "tested-system": "PXR (NR1I2) (Homo sapiens)", "endpoint-label": "activity at 24 h, 10 µM", "meas-value": 90}
{"entry-smiles": "COc1ccc(Cl)cc1-n1nnc(S(=O)(=O)c2ccc(C(C)(C)C)cc2)c1C#N", "tested-system": "PXR (NR1I2) (Homo sapiens)", "endpoint-label": "activity at 24 h, 10 µM", "meas-value": 105}
{"entry-smiles": "COc1ccc(Cl)cc1-c1ncc(S(=O)(=O)c2ccc(C(C)(C)C)cc2)n1C", "tested-system": "PXR (NR1I2) (Homo sapiens)", "endpoint-label": "activity at 24 h, 10 µM", "meas-value": 81}
{"entry-smiles": "COC(=O)c1cc(OC)c(-n2nnc(S(=O)(=O)c3ccc(C(C)(C)C)cc3)c2C)cc1C", "tested-system": "PXR (NR1I2) (Homo sapiens)", "endpoint-label": "activity at 24 h, 10 µM", "meas-value": 75}
